Reference source: patent US20250171542A1

# study.system: T1, cynomolgus PD-L1-His (Sino Biological, Cat. 90251-C08H) (cynomolgus, UniProt Q9NZQ7 19-238 (human entry))
# T1 construct: Bought protein; also called Cyno PD-L1; Cynomolgus PD-L1 ECD-His; not shown: His tag
# T1 sequence (Q9NZQ7 other isoform, or with tags, fused parts or gaps C08H C08H limits assumed): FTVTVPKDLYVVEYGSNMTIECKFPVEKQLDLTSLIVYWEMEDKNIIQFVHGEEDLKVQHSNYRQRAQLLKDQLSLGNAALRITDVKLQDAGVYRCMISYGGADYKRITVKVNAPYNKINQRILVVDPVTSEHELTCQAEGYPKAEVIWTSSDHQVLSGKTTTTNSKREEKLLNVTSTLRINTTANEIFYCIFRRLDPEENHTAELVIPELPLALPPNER
# test.summary: ELISA, coated cyno PD-L1-His
The reader will find reported pEC50 values listed item by item below.
Note on pEC50: it is the negative log10 of concentration, concentration in mol/L.

57F11 (antibody, human IgG1, V domains shown) VH: QEHLEESGGGLVQPEGALTLTCTASGFSFSGDYYMSWVRQAPGKGLEWIASIYTGSLNTYYATWAKGRFTISIASSTTVTLQVTSLTAADTATYFCARRTKNGDYGYFDLWGPGTLVTVSS VL: YDMTQTPASVEVAVGGTVTIKCQASQSINDRLAWYQQKPGQPPKLLIYAASTLASGVPSRFKGSGSGTEFTLTISDLECADAATYYCQQGWTVSSLENAFGGGTEVVAK; 10.86

// returns reported pEC50 for input 56E5 (antibody, human IgG1, V domains shown) VH: QEQLEESGGGLVQPEGSLTLTCTASGFSFSGDYYMSWVRQAPGKGLEWIASIYTGSLNTYYATWAKGRFTISLTSSTTVTLQMTSLTAADTATYFCARRHKNADYGHFDLWGPGTLVTVSS VL: YDMTQTPGSVEVAVGGTVTIKCQASQSINDRLAWYQQTPGQPPKLLIYGASTLASGVPSRFKGSGSGTEFTLTISDLECADAATYYCQQGWTVSSLDNAFGGGTEVVAK
11.11
